test: yeast display, Sf9 membrane polyspecificity reagent, FACS + sequencing; frameworks hold sequencing errors
Readout Label: polyreactivity (PSR sort gate)

QVQLVESGGGLVQAGGSLRLSCAASGSTFQGNAMGWYRQAPGKERELVAAISRSGGSTYADSVKGRFTMSRDNAKNTVYLQMNSLKPEDTAVYYCAAYSGVGYLWFDYWGQGTQVTVSS :: low polyreactivity
QVQLVESGGGLVQAGGSLRLSCAASGSTFSYYAMGWYRQAPGKEREFVASISWRGGSTYYADSVKGRFTISRDNAKNTVYLQMNRLKPEDTAVYYCAASSRSRWSGYRYDYWGQGTQVTVSS :: high polyreactivity
QDQLVESGGGLVQAGGSLRLSCAASGSIFPYNAMAWSRQAPGTERELVAGITYNGGSTYYADSVKGRFTISRDNAKNTVYLQMNSLKREDTAVYYCAAAGRRAFYRYDHWGQGTQVTVSS :: high polyreactivity
QVQLVESGGGLVQAGGSLRLSCAASGRIFRANAMGWYRQAPGKERELVAAISTSGGSTTYADSVKGRFTISRDNAKNTVYLQMNCLKPEDTAVYYCAVDSWLKWRDKWVIRHDYWGQGTQVTVSS :: high polyreactivity

Would you kindly look at the next entry?
Incoming: I would be grateful if you could share the reported polyreactivity (PSR sort gate) for QVQLVESGGGLVQAGGSLRLSCAASGRTFPYNAMGWYRQAPGKERELVAAISSGGSTNYADSVKGRFTISRDNAKNTVYLQMNSLKPEDTAVYYCAVTGWPRYTWYSYGYWGQGTQVTVSS .
Outgoing: low polyreactivity

---

assay: yeast display, Sf9 membrane polyspecificity reagent, FACS + sequencing; frameworks hold sequencing errors
Readout Label: polyreactivity (PSR sort gate)

The examples below pair each entry with its known result.
QVQLVESGGGLVQAGGSLRLSCAASGGIFKRNTMGWYRQAPGKERELGAGISWTGGRTYYADSVKGRFTISRDTAKNTVYLQMNSLKPEDTAVYYCAAKPLQGVRRVEYWGQGTQVTVSS :: high polyreactivity
QVQLVESGGGLVQAGGSLRLSCAASGRIFRRYTMGWSRQAPGKERELVAAISSGGSTNYADSVKGRFTISRDNANNTVYLQMNSLKPEDTAVYYCAARFASRQHTIYYYWGQGTQVTVSS :: high polyreactivity
QVQLVESGGGLVQAGGSLRLSCPASGRIFKSYAMGWYRHAPGKERELVAAINWSGGSKYYADSVKGRFTISRDNAKNTVYLQMNSLKPEDTAVYYCAAYFYGRWPYGTGYYYWGQGTQVTVSS :: high polyreactivity
QVQHVESRGGLVQAGGSLRLSCAASGFTFYTNVMGWSRQAPGKERELVAAINSGGSTNYADSVKGRFTISRDNAKNTVYLQMNSLKAEDTAVYYCNKRGTEIGYDYWGQGTQVTVSS :: low polyreactivity

Would you kindly look at the next entry?
Incoming: I would be grateful if you could share the reported polyreactivity (PSR sort gate) for QVQLVESGGGLVQAGGSLRLSCAASGSTRFWKDMGWYRQAPWKERELVAVISFSGVSTYYADSVKGRFTISRDNAKNTVYIQMNRLKPEDTAVYYCAIEDGYSQLKTTFDEPGYGSWGQGTQVNVSS .
Outgoing: low polyreactivity

---

test: yeast display, Sf9 membrane polyspecificity reagent, FACS + sequencing; frameworks hold sequencing errors
Readout Label: polyreactivity (PSR sort gate)

The examples below pair each entry with its known result.
QVQLVESGGGLVQAGGSLRLSCAASGRIFGDNAMGWSRQAPGKEWELVAAITVNAGSTHYAASVKGRFTISRDNAKNTVYLQMNSLKPEDTAVYYCAKQTAPVTGVGPYFYWGQGTQVTVSS :: low polyreactivity
QVQLVESGGGLVQAGGSLRLSCAASGSIFRVYAMGWYRQSPGKERELVASIRSRGGSTYYADSVKGRFTISRDNAKNTVYLQMNSLKPEDTAVYYCGKSYWGGDEYWGQGTQVTVSS :: low polyreactivity
QVQLVESGGGLVQAGGSLRLSCAASGIIFLGYVMGWYRQAPGKERELVAAISSSGGRTYYADSVKGRFTISRDNAKNTVYLQMNSLKPEDTAVYYCARYSYRGTNVRYDYWGQGTQVTVSS :: high polyreactivity
QVQLVESGGGLVQAGGSLRLSCAASGSTFVRNAMGWYRQAPGKERELVAGISTGDNTYYADSVKWRFTISRDNAKNTVYLQMISLKPEDTAVYYCNATKEFSFGLDYWGQGTQVTVSS :: low polyreactivity
QVQLVESGGGLVQAGGSLRLSCAASGFTFWLYAMGWYRQAPGKERELVAAITSGGGTYYADSVKGRFTISRDNEKNTVYLQMNSLKPEDTAVYYCAAEWVRDYEQGVSSFGFYYWGQGTQVTVSS :: low polyreactivity
QVQLVESGGGLVQAGGSLRLSCADSGNIIWGNAIGWYRQAPGKERELVAAISRRSGSTYYADSVKGRFTISRDNAKNTVYLQMNSLKPEDTAVYYCNTAGRVGTYDYWGQGTQVTVSS :: high polyreactivity
QVQLVESGGGLVQAGGRLRLSCAASGGIIWAYAMGRYRQAPGKERELVAAISSSTGTTYYADSVKGRFTISRDNAKNTVYLQMNSLKPEETAVYYCAAYAYIGDYVSYYGGDYWGQGTQVTVSS :: low polyreactivity
QVQLVESGGGLVQAGASLRLSCAASGSTFLLNAMGWYRQAPGKERELVAAITSSGGTNYADSVKGRFTISRDNAKNTVYLQMNSLKPEDTAVYYCNTRYSPGYQGSEVDYWGQGTQVTVSS :: low polyreactivity

Quick batch: polyreactivity (PSR sort gate) for everything below.
1. QVQLVESGGGLVQAGGRHRLTCAASGRILGYYAMGWYRQAPGKQRELVAAITRGGTTNYADSVKGRFTISRDNAMNTVYLQKNSQKPEDSAGYYCAADLARYGKRYDFWGQGTQVTLSS
2. QFQLVESGGGLVQAGGSLRLSCAASGSTLRLNVMGWYRQAPGKERELVARISRGCSTYYADSVKGRFTISRDNAKNTVYLQMNSLKPEDTAVYYCTAQSYPCVTPYSYWGQGTQVTVSS
3. QVQLVESGGGLVQAGGSLRLSCAASGLTLRYYVMGWYRQAPGKERELVASITRSGGSTSYADSVKGRFTISRDNAKNTVYLQMNSLQPEDTAVYYCNRRTYVGTRASFLYYYWGQGTQVTVSA
4. QVQLVESGGGLVQAGGSLRLSCAASGRNFGSYAMGWSRQAPGKERELVAGIRSVGSTNYADSVKGRFTISRDNAKNTVYLQMNSLKPEDTAVYYCAARLWHLSYAGQGGDYWGQGTQVTVSS
5. QVQLVESGGGLVQAGGSLRLSCAASGRIFQIYAMGWYRQAHGKERELVAAISSGGTTYYADSVKGRFTISRDNAKYTVYLLMNSLKPEDTAVYYCADASGYYRYDYWGQGTQVTVSS
6. QVQLVESGGGLVQAGGSLRLSCAASGSTFTNYAMGWYRQAPGKERELVAAIDRRDGTTYYADSVKGRFTISRDNAKNTVYLQMNSLKPEDTAVYYCAADRDYSADVPGYYYWGQGTQVTVSS

Outgoing:
1: low polyreactivity; 2: low polyreactivity; 3: high polyreactivity; 4: low polyreactivity; 5: high polyreactivity; 6: low polyreactivity

All values here come from the nanobody polyreactivity screen of Harvey et al. (2022).
